- subjectOfTest: Full length WRN protein (aa 2-1432) (Homo sapiens (Human))
- Sequence (Q14191 2-1432): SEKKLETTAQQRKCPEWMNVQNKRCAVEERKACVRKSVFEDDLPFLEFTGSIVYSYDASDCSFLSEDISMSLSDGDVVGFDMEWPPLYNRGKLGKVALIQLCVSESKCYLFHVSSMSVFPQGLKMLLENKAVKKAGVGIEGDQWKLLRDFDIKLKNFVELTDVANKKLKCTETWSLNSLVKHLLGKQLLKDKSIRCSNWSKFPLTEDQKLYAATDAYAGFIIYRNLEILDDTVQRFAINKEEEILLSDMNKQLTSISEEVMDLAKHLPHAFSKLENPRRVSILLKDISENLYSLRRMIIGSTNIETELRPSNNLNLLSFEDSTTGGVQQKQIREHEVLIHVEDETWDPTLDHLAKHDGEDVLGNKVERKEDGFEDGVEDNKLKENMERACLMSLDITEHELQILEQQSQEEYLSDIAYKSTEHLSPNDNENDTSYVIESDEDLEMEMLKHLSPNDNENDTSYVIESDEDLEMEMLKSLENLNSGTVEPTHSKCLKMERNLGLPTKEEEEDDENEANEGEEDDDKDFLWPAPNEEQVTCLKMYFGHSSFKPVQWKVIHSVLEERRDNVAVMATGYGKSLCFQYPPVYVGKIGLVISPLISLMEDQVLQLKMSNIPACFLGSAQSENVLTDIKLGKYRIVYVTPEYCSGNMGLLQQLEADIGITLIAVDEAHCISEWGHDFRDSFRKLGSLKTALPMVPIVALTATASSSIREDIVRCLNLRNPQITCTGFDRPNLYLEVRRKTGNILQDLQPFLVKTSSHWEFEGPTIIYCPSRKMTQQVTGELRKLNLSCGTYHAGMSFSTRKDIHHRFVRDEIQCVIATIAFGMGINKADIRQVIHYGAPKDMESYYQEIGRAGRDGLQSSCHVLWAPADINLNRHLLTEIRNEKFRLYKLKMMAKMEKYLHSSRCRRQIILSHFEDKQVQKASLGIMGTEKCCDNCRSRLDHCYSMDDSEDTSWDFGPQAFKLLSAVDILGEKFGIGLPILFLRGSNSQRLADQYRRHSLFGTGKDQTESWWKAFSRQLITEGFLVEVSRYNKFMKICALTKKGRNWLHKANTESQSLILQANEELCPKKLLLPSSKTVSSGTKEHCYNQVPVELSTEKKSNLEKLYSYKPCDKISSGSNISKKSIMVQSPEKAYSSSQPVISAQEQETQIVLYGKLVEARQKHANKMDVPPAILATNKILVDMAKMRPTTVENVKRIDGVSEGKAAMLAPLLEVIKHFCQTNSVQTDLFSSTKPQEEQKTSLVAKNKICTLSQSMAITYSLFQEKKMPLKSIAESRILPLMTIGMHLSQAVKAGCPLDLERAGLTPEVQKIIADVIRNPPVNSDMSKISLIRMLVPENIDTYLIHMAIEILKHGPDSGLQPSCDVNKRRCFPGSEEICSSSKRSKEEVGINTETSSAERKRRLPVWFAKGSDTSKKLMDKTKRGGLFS
- testName: WRN ATPase ADP-Glo biochemical assay, Assay Format B (100 μM ATP)
- recordedConditions: 0.25 nM WRN, 100 nM C6.18 ssDNA, 60 min preincubation, read-out: ATPase ADPGlo AC50 (uM)- Assay Format B
Answer each item with its documented AC50.

Use the examples below as a reference point.
C=CC(=O)N1CCOc2nn(-c3ccc(C45CC(C4)C5)cc3)c3c2C(C1)N(C(=O)c1ccc(Br)c2[nH]cnc12)CC3 (stereo not shown)    0.005 to 0.015 µM
C=CC(=O)N1CCc2nn(-c3ccc(C4CC4)cc3O)c3c2C(C1)N(C(=O)c1cnc(OC(F)(F)F)c(F)c1N)CC3 (stereo not shown)    0.005 to 0.015 µM
C=CC(=O)N1CCc2nn(-c3ccc(C(F)(F)F)cc3O)c3c2C(C1)N(C(=O)c1ccc(Br)c2[nH]cnc12)CC3 (stereo not shown)    0.015 to 0.055 µM

Next up:
What value of AC50 on Full length WRN protein (aa 2-1432) (Homo sapiens (Human)) does C=CC(=O)N1CCc2nn(-c3ccc(C(C)C)cc3)c3c2C(C1)N(C(=O)c1cnc(C(F)(F)F)c(O)c1)CC3 (stereo not shown) have? 0.015 to 0.055 µM

All figures here come from patent US20250346600A1.
